Each recorded value in this set is attributed to patent US6229016A.

Test system: SK-MEL-5 melanoma cell line
Assign classes using reported GI50 values and the ranges class A = under 70 nM, class B = from 70 nM up to 3000 nM, class C = 3000 nM and over, please.

See these solved cases before continuing.
- COMPOUND: "O=c1cc(-c2cccc(Cl)c2)[nH]c2ncccc12 [32']"
  DISCRETE LABEL: "class A"
- COMPOUND: "COc1ccc(C2=Nc3nc(C)cc(C)c3C(=O)C2)cc1 [Compound 55]"
  DISCRETE LABEL: "class C"
- COMPOUND: "Cc1ccc2c(n1)N=C(c1ccc3ccccc3c1)CC2=O [Compound 50]"
  DISCRETE LABEL: "class C"
- COMPOUND: "Cc1cccc(-c2cc(=O)c3c(C)ccnc3[nH]2)c1 [38']"
  DISCRETE LABEL: "class A"
- COMPOUND: "COc1cccc(-c2cc(=O)c3cccnc3[nH]2)c1 [Compound 44]"
  DISCRETE LABEL: "class A"
- COMPOUND: "Cc1ccnc2c1C(=O)CC(c1cccc3ccccc13)=N2 [Compound 43]"
  DISCRETE LABEL: "class A"
- COMPOUND: "Cc1ccnc2c1C(=O)CC(c1ccc3ccccc3c1)=N2 [Compound 48]"
  DISCRETE LABEL: "class B"
- COMPOUND: "COc1ccc(-c2cc(=O)c3cccnc3[nH]2)cc1 [Compound 51]"
  DISCRETE LABEL: "class C"
- COMPOUND: "Cc1cc(C)c2c(n1)N=C(c1ccc(F)cc1)CC2=O [Compound 60]"
  DISCRETE LABEL: "class C"

Switching to the query record.
Looking at Cc1cnc2c(c1)C(=O)CC(c1ccc3ccccc3c1)=N2 [Compound 49] , which class would you pick?
class B

###

For each entry below, report its log10 of IC50 value.
Test system: tubulin
ASSAY METHOD TEXT: Tubulin polymerization assay
Type: biochemical, bovine
CONDITIONS USED: Tables 1 and 4; read-out: ITP HC50 ± SD (Inhibition of Tubulin Polymerization)
Recall that a logarithmic scale is used here: each number is log10 of IC50 in µM.

The examples below pair each entry with its known result.
- SMILES ENTRY: "Cc1ccnc2c1C(=O)CC(c1ccc(F)cc1)=N2"
  log10 of IC50: 1.26
- SMILES ENTRY: "Cc1ccc(C2=Nc3nccc(C)c3C(=O)C2)cc1"
  log10 of IC50: 0.46
- SMILES ENTRY: "Cc1cnc2c(c1)C(=O)CC(c1ccc(Cl)cc1)=N2"
  log10 of IC50: 0.30
- SMILES ENTRY: "O=C1CC(c2ccc(F)cc2)=Nc2ncc(Cl)cc21"
  log10 of IC50: 1.20

Field: log10 of IC50. Fill in for each record below.
1. O=C1CC(c2ccc(Cl)cc2)=Nc2ncccc21
2. Cc1cnc2c(c1)C(=O)CC(c1ccc(F)cc1)=N2

1. 1.34
2. 1.30

###

Test system: HCT-116 colon cancer cell line
For each entry below, report its GI50 value.
Numbers only, in nM.

- MOLECULE: "COc1ccc(-c2cc(=O)c3c(C)ccnc3[nH]2)cc1 [Compound 52]"
  SUBJECT OF TEST: "HCT-116 colon cancer cell line"
  UNITS TEXT: "nM"
  GI50: 6460
- MOLECULE: "Cc1ccnc2[nH]c(-c3cccc(Cl)c3)cc(=O)c12 [33']"
  SUBJECT OF TEST: "HCT-116 colon cancer cell line"
  UNITS TEXT: "nM"
  GI50: 15.8

Tested system HCT-116 colon cancer cell line; GI50 recorded for Cc1cccc(-c2cc(=O)c3c(C)ccnc3[nH]2)c1 [38'] was 46.8

###

Test system: OVCAR-3 ovarian cancer cell line
For each entry below, report its GI50 value.
One number for each entry, in nM.

Field: GI50. Fill in for each record below.
1. Cc1cnc2[nH]c(-c3cccc(Cl)c3)cc(=O)c2c1
2. O=C1CC(c2ccc(Cl)cc2)=Nc2ncccc21
3. COc1ccccc1-c1cc(=O)c2cccnc2[nH]1

1. 22.4
2. 23400
3. 47900

Field: GI50. Fill in for each record below.
1. COc1ccccc1-c1cc(=O)c2c(C)cc(C)nc2[nH]1
2. Cc1ccnc2[nH]c(-c3cccc(Cl)c3)cc(=O)c12
3. COc1cccc(-c2cc(=O)c3c(C)cc(C)nc3[nH]2)c1
4. Cc1ccnc2c1C(=O)CC(c1ccc3ccccc3c1)=N2

1: 64600; 2: 31.6; 3: 251; 4: 1290

###

System: NCI's 60 human tumor cell line
ASSAY METHOD TEXT: NCI 60 human tumor cell line in vitro screen (average / whole panel)
Format: cell-based
CONDITIONS USED: calculated from all cell lines tested, molar concentrations, read-out: average log GI50 (converted)
Assign classes using reported GI50 values and the ranges LOW (below 0.3 µM), MID (0.3 µM to below 10 µM), HIGH (10 µM or more), please.

Looking at O=C1CC(c2ccc3ccccc3c2)=Nc2ncccc21 [Compound 47, 2-(β-Naphthyl)-1,8-naphthyridin-4-one] , which class would you pick?
MID

Looking at Cc1ccc2c(n1)N=C(c1cccc3ccccc13)CC2=O [Compound 45] , which class would you pick?
LOW

Looking at COc1cccc(-c2cc(=O)c3cc(Cl)cnc3[nH]2)c1 [Compound 49] , which class would you pick?
LOW

Looking at O=C1CC(c2ccc(Cl)cc2)=Nc2ncccc21 [Compound 62] , which class would you pick?
HIGH

Looking at Cc1cnc2[nH]c(-c3cccc(Cl)c3)cc(=O)c2c1 [34'] , which class would you pick?
LOW

###

For each entry below, report its log10 of GI50 value.
Test system: HCT-116 colon cancer cell line
Recall that a logarithmic scale is used here: each number is log10 of GI50 in nM.

The examples below pair each entry with its known result.
- SMILES ENTRY: "Cc1ccc2c(n1)N=C(c1ccc(F)cc1)CC2=O"
  log10 of GI50: 4.53
- SMILES ENTRY: "Cc1cnc2[nH]c(-c3cccc(F)c3)cc(=O)c2c1"
  log10 of GI50: 1.38
- SMILES ENTRY: "Cc1cc(C)c2c(n1)N=C(c1ccc(Cl)cc1)CC2=O"
  log10 of GI50: 4.17
- SMILES ENTRY: "Cc1cnc2c(c1)C(=O)CC(c1ccc3ccccc3c1)=N2"
  log10 of GI50: 2.67
- SMILES ENTRY: "O=C1CC(c2ccc3ccccc3c2)=Nc2ncccc21"
  log10 of GI50: 3.58

Field: log10 of GI50. Fill in for each record below.
1. Cc1cccc(C2=Nc3ncc(C)cc3C(=O)C2)c1
2. COc1ccccc1-c1cc(=O)c2cc(C)cnc2[nH]1
3. Cc1cc(C)c2c(n1)N=C(c1cccc3ccccc13)CC2=O

1. 2.61
2. 4.63
3. 2.58

###

Test system: SK-MEL-5 melanoma cell line
ASSAY METRIC: log10(GI50) (log10 of the value in µM)
Recall that a logarithmic scale is used here: each number is log10 of GI50 in µM.

The examples below pair each entry with its known result.
- MOLECULE: "Cc1ccnc2[nH]c(-c3cccc(Cl)c3)cc(=O)c12 [33']"
  REPORTED VALUE: -1.38
- MOLECULE: "Cc1cccc(C2=Nc3ncc(C)cc3C(=O)C2)c1 [Compound 39]"
  REPORTED VALUE: -0.54
- MOLECULE: "Cc1cccc(C2=Nc3nc(C)ccc3C(=O)C2)c1 [Compound 40]"
  REPORTED VALUE: -0.90
- MOLECULE: "Cc1ccc2c(n1)N=C(c1ccc(Cl)cc1)CC2=O [Compound 65]"
  REPORTED VALUE: 0.64

As a next step, examine the molecule that follows.
Tested system SK-MEL-5 melanoma cell line; log10(GI50) recorded for Cc1ccnc2c1C(=O)CC(c1ccc(F)cc1)=N2 [Compound 57] was 1.21

###

System: NCI's 60 human tumor cell line
ASSAY METHOD TEXT: NCI 60 human tumor cell line in vitro screen (average / whole panel)
Type: cell-based
CONDITIONS USED: calculated from all cell lines tested, molar concentrations, read-out: average log GI50 (converted)
ASSAY METRIC: log10(GI50) (log10 of the value in µM)
Recall that a logarithmic scale is used here: each number is log10 of GI50 in µM.

The examples below pair each entry with its known result.
- SMILES ENTRY: "Cc1ccc2c(=O)cc(-c3cccc(F)c3)[nH]c2n1"
  SUBJECT OF TEST: "NCI's 60 human tumor cell line"
  ASSAY METRIC: "log10(GI50)"
  REPORTED VALUE: -1.37
- SMILES ENTRY: "COc1ccccc1-c1cc(=O)c2c(C)ccnc2[nH]1"
  SUBJECT OF TEST: "NCI's 60 human tumor cell line"
  ASSAY METRIC: "log10(GI50)"
  REPORTED VALUE: 0.45
- SMILES ENTRY: "Cc1cnc2c(c1)C(=O)CC(c1ccc3ccccc3c1)=N2"
  SUBJECT OF TEST: "NCI's 60 human tumor cell line"
  ASSAY METRIC: "log10(GI50)"
  REPORTED VALUE: -0.13
- SMILES ENTRY: "COc1cccc(-c2cc(=O)c3ccc(C)nc3[nH]2)c1"
  SUBJECT OF TEST: "NCI's 60 human tumor cell line"
  ASSAY METRIC: "log10(GI50)"
  REPORTED VALUE: -1.24
- SMILES ENTRY: "Cc1ccnc2[nH]c(-c3cccc(Cl)c3)cc(=O)c12"
  SUBJECT OF TEST: "NCI's 60 human tumor cell line"
  ASSAY METRIC: "log10(GI50)"
  REPORTED VALUE: -0.80

Field: log10(GI50). Fill in for each record below.
1. Cc1cccc(-c2cc(=O)c3cccnc3[nH]2)c1
2. Cc1cc(C)c2c(n1)N=C(c1ccc(Cl)cc1)CC2=O
3. Cc1ccc2c(=O)cc(-c3cccc(Cl)c3)[nH]c2n1
4. Cc1cccc(C2=Nc3nc(C)ccc3C(=O)C2)c1
5. Cc1cccc(C2=Nc3ncc(C)cc3C(=O)C2)c1
6. Cc1ccc2c(n1)N=C(c1ccc(F)cc1)CC2=O

-1.02
1.29
-0.77
-1.01
-0.19
1.51

Field: log10(GI50). Fill in for each record below.
1. COc1ccc(-c2cc(=O)c3c(C)ccnc3[nH]2)cc1
2. COc1ccccc1-c1cc(=O)c2cc(C)cnc2[nH]1

[1.11, 1.50]

Field: log10(GI50). Fill in for each record below.
1. Cc1ccnc2c1C(=O)CC(c1ccc(F)cc1)=N2
2. Cc1cc(C)c2c(=O)cc(-c3cccc(Cl)c3)[nH]c2n1
3. COc1ccc(C2=Nc3nc(C)cc(C)c3C(=O)C2)cc1
4. Cc1cnc2c(c1)C(=O)CC(c1ccc(Cl)cc1)=N2
5. COc1cccc(-c2cc(=O)c3c(C)cc(C)nc3[nH]2)c1
6. COc1ccccc1-c1cc(=O)c2c(C)cc(C)nc2[nH]1

1.58
-0.46
1.52
0.57
-0.19
1.76

Looking up Cc1cnc2c(c1)C(=O)CC(c1ccc(F)cc1)=N2 , I found its log10(GI50) recorded as 1.42
